Attribution: PubChem BioAssay (NCI)

- Tested on: UACC-257 melanoma
- assay: NCI tumour cell line growth inhibition, 48 h; in the data active = GI50 below about 0.43 µM; inactive = the rest
Allowed answers: active, inactive

# compound, target_or_test_system, group_label
data = [
    ("OCc1ccc(N(Cc2ccc(F)cc2)CC2CC2)cc1Cl", "UACC-257 melanoma", "active"),
    ("[Cl-].[Nd+3].[O-]/N=C(\\c1ccccc1)c1ccccn1.[O-]/N=C(\\c1ccccc1)c1ccccn1.[O-]/N=C(\\c1ccccc1)c1ccccn1", "UACC-257 melanoma", "inactive"),
    ("CC(=O)OC1CC2C(C)(C)C(=O)C=C[C@]2(C)C2CC[C@]3(C)C(OCC(=O)[C@H]3c3ccoc3)[C@]12C (some centres undefined)", "UACC-257 melanoma", "inactive"),
]

Now, please, on to the next compound.
Task: What did the test return for COc1cc2c(cc1OCc1ccccc1)N=CC1C[C@@H](O)CN1C2=O (some centres undefined) ?
Result: inactive
